Below: a set of entries, each annotated with reported Ki.
Molecular target: Beta-galactosidase (Aspergillus oryzae, UniProt Q2U7N3)
Sequence (Q2U7N3 whole entry): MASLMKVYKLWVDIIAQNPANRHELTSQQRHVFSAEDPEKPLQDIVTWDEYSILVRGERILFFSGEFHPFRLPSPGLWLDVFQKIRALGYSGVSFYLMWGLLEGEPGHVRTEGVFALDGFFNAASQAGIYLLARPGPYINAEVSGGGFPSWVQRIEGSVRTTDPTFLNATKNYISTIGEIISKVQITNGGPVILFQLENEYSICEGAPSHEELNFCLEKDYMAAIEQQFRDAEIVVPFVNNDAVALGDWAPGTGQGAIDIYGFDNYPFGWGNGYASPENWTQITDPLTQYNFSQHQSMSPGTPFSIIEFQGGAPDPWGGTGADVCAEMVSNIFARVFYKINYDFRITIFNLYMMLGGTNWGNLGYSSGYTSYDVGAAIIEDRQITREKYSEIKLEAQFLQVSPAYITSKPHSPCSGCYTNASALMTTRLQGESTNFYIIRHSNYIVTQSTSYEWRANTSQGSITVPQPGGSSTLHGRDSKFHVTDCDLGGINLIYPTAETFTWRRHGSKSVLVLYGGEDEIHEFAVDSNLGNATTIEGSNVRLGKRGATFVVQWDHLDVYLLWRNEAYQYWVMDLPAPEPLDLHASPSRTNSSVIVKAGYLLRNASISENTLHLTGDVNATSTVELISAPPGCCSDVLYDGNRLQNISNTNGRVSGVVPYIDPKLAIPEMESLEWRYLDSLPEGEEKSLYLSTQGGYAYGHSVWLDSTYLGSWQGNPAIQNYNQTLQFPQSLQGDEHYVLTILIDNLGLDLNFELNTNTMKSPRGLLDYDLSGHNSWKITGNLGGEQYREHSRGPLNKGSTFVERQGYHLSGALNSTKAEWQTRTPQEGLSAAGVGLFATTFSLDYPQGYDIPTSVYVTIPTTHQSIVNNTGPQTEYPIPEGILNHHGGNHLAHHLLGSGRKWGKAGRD
Quick note: unit goes after the number.

Field: example entries. Status: answers known.
- OC[C@H]1N/C(=N\Cc2ccccc2F)[C@H](O)[C@@H](O)[C@H]1O: 16.1 nM
- OC[C@H]1N/C(=N\Cc2ccc(F)cc2)[C@H](O)[C@@H](O)[C@H]1O: 10.1 nM
- OC[C@H]1N/C(=N\CC2CC2)[C@H](O)[C@@H](O)[C@H]1O: 9.5 nM
- OC[C@H]1N/C(=N\CC2CCCCCC2)[C@H](O)[C@@H](O)[C@H]1O: 6.3 nM

[ask] Could you tell me which Ki is on file for OC[C@H]1N/C(=N\Cc2ccc(C(F)(F)F)cc2)[C@H](O)[C@@H](O)[C@H]1O ?
[reply] 15.7 nM

[ask] Another compound to check: OC[C@H]1N/C(=N\C2CCCCC2)[C@H](O)[C@@H](O)[C@H]1O
[reply] 602 nM

[ask] Another compound to check: CCCCCCCCCCCC/N=C1\N[C@H](CO)[C@H](O)[C@H](O)[C@H]1O
[reply] 48.4 nM

[ask] Another compound to check: COc1ccc(C/N=C2\N[C@H](CO)[C@H](O)[C@H](O)[C@H]2O)cc1
[reply] 17.1 nM

[ask] Another compound to check: Cc1cccc(C/N=C2\N[C@H](CO)[C@H](O)[C@H](O)[C@H]2O)c1
[reply] 29.4 nM

[ask] Another compound to check: CCCCC(CC)/N=C1\N[C@H](CO)[C@H](O)[C@H](O)[C@H]1O (stereo not given in full)
[reply] 7.8 nM

====

Molecular target: Beta-galactosidase (Aspergillus oryzae, UniProt Q2U7N3)
Sequence (Q2U7N3 whole entry): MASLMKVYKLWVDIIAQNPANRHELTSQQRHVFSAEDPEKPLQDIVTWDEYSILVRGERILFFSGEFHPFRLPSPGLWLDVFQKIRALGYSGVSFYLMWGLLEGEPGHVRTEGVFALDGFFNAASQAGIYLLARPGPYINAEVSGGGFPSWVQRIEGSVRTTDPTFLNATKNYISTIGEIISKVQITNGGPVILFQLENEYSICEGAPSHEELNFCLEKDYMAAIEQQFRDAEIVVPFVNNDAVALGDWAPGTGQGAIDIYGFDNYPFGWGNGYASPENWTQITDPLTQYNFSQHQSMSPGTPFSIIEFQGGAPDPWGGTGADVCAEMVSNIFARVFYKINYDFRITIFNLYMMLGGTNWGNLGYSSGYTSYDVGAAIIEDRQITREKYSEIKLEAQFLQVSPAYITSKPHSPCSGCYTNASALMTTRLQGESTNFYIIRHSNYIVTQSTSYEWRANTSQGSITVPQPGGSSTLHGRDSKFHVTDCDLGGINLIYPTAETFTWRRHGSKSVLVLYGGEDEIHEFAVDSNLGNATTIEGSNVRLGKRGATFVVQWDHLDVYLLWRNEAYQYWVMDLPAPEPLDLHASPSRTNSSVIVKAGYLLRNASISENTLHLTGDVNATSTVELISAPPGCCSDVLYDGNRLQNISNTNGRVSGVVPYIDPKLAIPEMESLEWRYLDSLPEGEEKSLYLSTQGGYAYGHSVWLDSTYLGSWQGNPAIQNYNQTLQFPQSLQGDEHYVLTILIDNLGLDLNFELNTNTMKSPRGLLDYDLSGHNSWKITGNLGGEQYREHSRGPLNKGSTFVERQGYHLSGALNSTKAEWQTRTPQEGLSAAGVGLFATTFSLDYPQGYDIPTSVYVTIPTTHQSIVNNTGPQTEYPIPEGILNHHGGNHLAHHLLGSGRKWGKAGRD
Binarize Ki at 20 nM; below is yes, at or above is no.

Answered cases to consult:
- CC(C)(C)c1ccc(C/N=C2\N[C@H](CO)[C@H](O)[C@H](O)[C@H]2O)cc1: no
- N=C1N[C@H](CO)[C@H](O)[C@H](O)[C@H]1O: no
- CCCCCCC/N=C1\N[C@H](CO)[C@H](O)[C@H](O)[C@H]1O: yes

Could you now consider this next compound?
[ask] In the record for OC[C@H]1N/C(=N\CC2CCCCC2)[C@H](O)[C@@H](O)[C@H]1O , is Ki less than 20 nM?
[reply] yes

====

Target or system UniProtKB Q2U7N3; recorded quantity IC50.
Lab book: enter the figure in nM, no units written.

Field: example entries. Status: answers known.
• OC[C@H]1N/C(=N\CC2CCCCCC2)[C@H](O)[C@@H](O)[C@H]1O = 36
• OC[C@H]1N/C(=N\CC2CCCCC2)[C@H](O)[C@@H](O)[C@H]1O = 22
• OC[C@H]1N/C(=N\CCCc2ccccc2)[C@H](O)[C@@H](O)[C@H]1O = 36
• OC[C@H]1N/C(=N\C2CCCCC2)[C@H](O)[C@@H](O)[C@H]1O = 4800
• Cc1ccc(C/N=C2\N[C@H](CO)[C@H](O)[C@H](O)[C@H]2O)cc1 = 36

[ask] Could you tell me which IC50 is on file for CCCCC(CC)/N=C1\N[C@H](CO)[C@H](O)[C@H](O)[C@H]1O (stereo partly drawn) ?
[reply] 22

[ask] Another molecule to check: OC[C@H]1N/C(=N\CC2CC2)[C@H](O)[C@@H](O)[C@H]1O
[reply] 0.86

[ask] Another molecule to check: CCCCCCC/N=C1\N[C@H](CO)[C@H](O)[C@H](O)[C@H]1O
[reply] 107

====

Target or system Beta-galactosidase (Aspergillus oryzae); recorded quantity Ki.
Lab book: enter the figure in nM, no units written.

* Cc1ccccc1C/N=C1\N[C@H](CO)[C@H](O)[C@H](O)[C@H]1O | 23.6

[ask] Could you tell me which Ki is on file for OC[C@H]1N/C(=N\CCCc2ccccc2)[C@H](O)[C@@H](O)[C@H]1O ?
[reply] 8.6

====

test: Inhibition of Aspergillus niger beta-glucosidase
pKi: −log10 of the molar value.
Recorded Metric: pKi

[ask] Could you tell me which pKi is on file for OC[C@H]1N/C(=N/CCc2ccccc2)[C@H](O)[C@@H](O)[C@H]1O ?
[reply] ≥ 8.92

====

experiment: Inhibition of almond beta-glucosidase; set-up: species or system Prunus dulcis
pKi: −log10 of the molar value.
Recorded Metric: pKi

[ask] Could you tell me which pKi is on file for OC[C@H]1N/C(=N/CCc2ccccc2)[C@H](O)[C@@H](O)[C@H]1O ?
[reply] ≥ 8.92

====

Below: a set of entries, each annotated with reported pKi.
Molecular target: Beta-galactosidase (Aspergillus oryzae, UniProt Q2U7N3)
Sequence (Q2U7N3 whole entry): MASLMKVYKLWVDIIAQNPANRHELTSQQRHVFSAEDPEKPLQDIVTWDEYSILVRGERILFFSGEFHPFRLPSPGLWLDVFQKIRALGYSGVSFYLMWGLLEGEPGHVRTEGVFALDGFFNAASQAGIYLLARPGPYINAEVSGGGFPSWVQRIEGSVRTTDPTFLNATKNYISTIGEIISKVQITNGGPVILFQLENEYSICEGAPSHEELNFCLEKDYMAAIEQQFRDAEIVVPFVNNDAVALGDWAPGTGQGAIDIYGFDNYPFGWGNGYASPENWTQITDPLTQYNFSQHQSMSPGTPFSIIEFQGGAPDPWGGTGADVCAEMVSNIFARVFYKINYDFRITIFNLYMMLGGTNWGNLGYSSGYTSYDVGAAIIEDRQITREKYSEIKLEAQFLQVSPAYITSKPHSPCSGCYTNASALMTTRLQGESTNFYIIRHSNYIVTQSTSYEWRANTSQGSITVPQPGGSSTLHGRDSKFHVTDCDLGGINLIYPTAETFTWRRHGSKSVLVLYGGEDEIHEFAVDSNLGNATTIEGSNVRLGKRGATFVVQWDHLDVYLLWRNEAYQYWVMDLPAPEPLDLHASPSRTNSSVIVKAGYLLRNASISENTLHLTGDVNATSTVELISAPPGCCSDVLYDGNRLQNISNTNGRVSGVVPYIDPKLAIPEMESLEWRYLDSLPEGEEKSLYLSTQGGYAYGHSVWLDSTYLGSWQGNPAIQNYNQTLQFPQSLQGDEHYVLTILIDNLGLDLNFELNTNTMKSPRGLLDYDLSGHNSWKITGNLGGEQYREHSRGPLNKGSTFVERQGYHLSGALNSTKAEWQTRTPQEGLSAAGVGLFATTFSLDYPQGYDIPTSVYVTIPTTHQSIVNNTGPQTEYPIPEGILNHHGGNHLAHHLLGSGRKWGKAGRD
// pKi here means minus log10 of the molar concentration (mol/L)

[ask] Could you tell me which pKi is on file for OC[C@H]1N/C(=N\C2CC2)[C@H](O)[C@@H](O)[C@H]1O ?
[reply] 7.50

[ask] Another compound to check: O=C1N[C@H](CO)[C@H](O)[C@H](O)[C@H]1O
[reply] 6.21

[ask] Another compound to check: Cc1ccc(C/N=C2\N[C@H](CO)[C@H](O)[C@H](O)[C@H]2O)cc1
[reply] 8.10

[ask] Another compound to check: OC[C@H]1N/C(=N\Cc2ccccc2)[C@H](O)[C@@H](O)[C@H]1O
[reply] 7.68

[ask] Another compound to check: CCC/N=C1\N[C@H](CO)[C@H](O)[C@H](O)[C@H]1O
[reply] 6.83
